assay: PK analysis of LB-102 in healthy human subjects, single and multiple ascending doses (Example 2); type: in vivo; details: both sexes, human, plasma, oral, 100 mg, 100 mg every 12 hours, D1, mean (SD); read-out: T1/2 D1 (converted)
Measured quantity: half-life (h)
Give bare numbers, in h.

Q) Return reported half-life; argument: CCN1CCCC1CNC(=O)c1cc(S(=O)(=O)CC)c(NC)cc1OC (stereo not shown) [LB-102]
A) 4.12

====

assay: PK analysis of LB-102 in healthy human subjects, single and multiple ascending doses (Example 2); type: in vivo; conditions: both sexes, human, plasma, oral, 200 mg, single administration 200 mg; read-out: Tmax
Measured quantity: Tmax (h)
Give bare numbers, in h.

Q) Which Tmax reading was recorded for the compound CCN1CCCC1CNC(=O)c1cc(S(=O)(=O)CC)c(NC)cc1OC (stereo not shown) [LB-102] ?
A) 3
